Biological target: T1, cynomolgus monkey BCMA (cynomolgus monkey, UniProt A0A2K5UD97 1-53)
T1 construct: Soluble analyte in SPR; construct not described; also called cyBCMA; Cyno BCMA
T1 sequence (A0A2K5UD97 entry or part of it): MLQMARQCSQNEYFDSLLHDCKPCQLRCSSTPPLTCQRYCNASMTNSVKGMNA
Assay: SPR, IgG on chip, cyBCMA analyte, 37C
Give measured kon for each item. Keep answers brief.
The reply should be a number in M⁻¹ s⁻¹, with the unit left off.

In one line, give reported kon of the entry L3.PY/L3.KY/H2.QR (antibody, V domains shown, IgG) VH: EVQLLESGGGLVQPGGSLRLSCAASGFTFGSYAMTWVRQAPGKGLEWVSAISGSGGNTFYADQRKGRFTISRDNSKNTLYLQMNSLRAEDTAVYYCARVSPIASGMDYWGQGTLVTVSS VL: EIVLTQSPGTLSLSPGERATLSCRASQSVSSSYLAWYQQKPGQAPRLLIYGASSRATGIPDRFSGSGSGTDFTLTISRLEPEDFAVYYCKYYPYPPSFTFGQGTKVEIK .
2.05e+06

Answer with the recorded kon of L3.PY/L3.KY/H2.QL (antibody, V domains shown, IgG) VH: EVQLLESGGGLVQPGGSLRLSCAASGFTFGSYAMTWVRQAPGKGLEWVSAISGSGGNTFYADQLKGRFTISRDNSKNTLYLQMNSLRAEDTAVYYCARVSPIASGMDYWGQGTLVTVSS VL: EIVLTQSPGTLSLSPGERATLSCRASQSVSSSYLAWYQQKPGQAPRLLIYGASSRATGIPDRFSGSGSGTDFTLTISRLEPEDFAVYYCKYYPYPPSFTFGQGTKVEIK only.
2.75e+06

Identify measured kon corresponding to L3.PY/L3.KF/H3.AE (antibody, V domains shown, IgG) VH: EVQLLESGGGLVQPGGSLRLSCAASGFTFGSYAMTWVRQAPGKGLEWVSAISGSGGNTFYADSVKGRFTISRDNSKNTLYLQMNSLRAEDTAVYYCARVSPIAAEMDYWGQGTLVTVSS VL: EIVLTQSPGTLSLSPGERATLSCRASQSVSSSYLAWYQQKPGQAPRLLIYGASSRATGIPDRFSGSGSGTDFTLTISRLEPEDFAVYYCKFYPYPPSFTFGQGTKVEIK
1.85e+06

Recall and state the measured kon for L3.PY/L3.KF/H2.LT (antibody, V domains shown, IgG) VH: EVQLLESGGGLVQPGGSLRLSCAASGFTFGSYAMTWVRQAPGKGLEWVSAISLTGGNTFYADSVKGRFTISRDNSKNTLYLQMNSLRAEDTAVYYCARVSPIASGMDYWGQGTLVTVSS VL: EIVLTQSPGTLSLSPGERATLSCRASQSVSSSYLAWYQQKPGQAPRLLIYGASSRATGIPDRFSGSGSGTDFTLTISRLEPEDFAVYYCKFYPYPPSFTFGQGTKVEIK .
1.91e+06

Consider the binder L3.PY/L3.KY/H2.HA (antibody, V domains shown, IgG) VH: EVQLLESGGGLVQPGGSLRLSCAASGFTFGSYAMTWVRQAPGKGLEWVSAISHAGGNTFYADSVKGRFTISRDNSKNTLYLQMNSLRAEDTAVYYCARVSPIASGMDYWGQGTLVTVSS VL: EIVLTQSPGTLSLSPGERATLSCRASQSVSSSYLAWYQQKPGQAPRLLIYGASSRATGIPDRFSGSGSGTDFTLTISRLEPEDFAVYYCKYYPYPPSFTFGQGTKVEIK . State its measured kon.
2.28e+06
